# measurementTarget: human TRPA1 (Homo sapiens, UniProt O75762, K186N/R3C/R58T)
# Construct: expressed in transfected cells; pcDNA3 control cells
# Sequence (O75762 whole entry R3C/R58T/K186N): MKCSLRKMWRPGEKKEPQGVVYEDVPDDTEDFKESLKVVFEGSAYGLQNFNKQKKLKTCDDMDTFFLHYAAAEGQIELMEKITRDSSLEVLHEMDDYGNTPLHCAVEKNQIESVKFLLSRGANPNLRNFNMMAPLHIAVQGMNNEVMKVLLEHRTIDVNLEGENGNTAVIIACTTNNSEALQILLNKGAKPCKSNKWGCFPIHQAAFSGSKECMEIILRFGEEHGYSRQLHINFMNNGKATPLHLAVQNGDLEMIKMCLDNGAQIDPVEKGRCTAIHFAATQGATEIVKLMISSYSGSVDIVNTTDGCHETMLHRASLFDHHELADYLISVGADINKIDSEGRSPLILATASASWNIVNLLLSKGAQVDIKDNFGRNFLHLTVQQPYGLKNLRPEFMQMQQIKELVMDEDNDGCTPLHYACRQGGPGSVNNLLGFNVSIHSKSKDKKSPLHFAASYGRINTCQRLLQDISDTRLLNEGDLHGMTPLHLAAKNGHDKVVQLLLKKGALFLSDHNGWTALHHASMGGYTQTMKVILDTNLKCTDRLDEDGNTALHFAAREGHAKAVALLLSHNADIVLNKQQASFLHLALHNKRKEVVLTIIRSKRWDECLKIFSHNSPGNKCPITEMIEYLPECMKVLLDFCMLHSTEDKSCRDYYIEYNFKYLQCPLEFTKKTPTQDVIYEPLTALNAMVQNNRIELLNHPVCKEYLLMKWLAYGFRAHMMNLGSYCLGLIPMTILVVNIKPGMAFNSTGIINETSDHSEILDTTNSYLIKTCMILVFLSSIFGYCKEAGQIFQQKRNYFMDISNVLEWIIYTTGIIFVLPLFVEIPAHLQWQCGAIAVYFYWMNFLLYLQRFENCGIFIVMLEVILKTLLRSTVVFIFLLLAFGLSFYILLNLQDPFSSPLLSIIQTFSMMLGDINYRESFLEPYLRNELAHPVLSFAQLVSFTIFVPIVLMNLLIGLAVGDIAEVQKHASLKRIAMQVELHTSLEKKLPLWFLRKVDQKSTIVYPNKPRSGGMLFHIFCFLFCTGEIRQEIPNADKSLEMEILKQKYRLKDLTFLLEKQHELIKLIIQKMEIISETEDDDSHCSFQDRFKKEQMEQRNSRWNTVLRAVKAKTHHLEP
# assayInfo: Intracellular calcium (Fluo-4, FLIPR) activation of TRPA1 cells by GRAS compounds;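 note: TRPA1-expressing cells, fluorescence read on a FLIPR Tetra (ex 488 nm, em 514 nm) every 2 s for 10 min after compound addition, baseline subtracted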
# Format: cell-based
# setupConditions: Table 1(d); 1 mM; relative to AITC 30 μM; read-out: A1 activation, % of agonist value
Outcome: class 1 for activation at 1000 µM of at least 80%; class 0 for anything lower.

molecule: Cc1ccc(O)cc1
measurementTarget: human TRPA1 (Homo sapiens, UniProt O75762, K186N/R3C/R58T)
classAssignment: class 0
//
molecule: C/C=C(\C)C(=O)OC(CC)CCCCC (stereo not shown) [1-Ethylhexyl Tiglate]
measurementTarget: human TRPA1 (Homo sapiens, UniProt O75762, K186N/R3C/R58T)
classAssignment: class 0
//
molecule: C=CC(O)CCCCCCC (stereo not shown)
measurementTarget: human TRPA1 (Homo sapiens, UniProt O75762, K186N/R3C/R58T)
classAssignment: class 1
//
molecule: C=C1CC/C=C(\C)CC[C@@H]2[C@@H]1CC2(C)C
measurementTarget: human TRPA1 (Homo sapiens, UniProt O75762, K186N/R3C/R58T)
classAssignment: class 1
//
molecule: C=C(C)CCC[C@H](C)CCO
measurementTarget: human TRPA1 (Homo sapiens, UniProt O75762, K186N/R3C/R58T)
classAssignment: class 1
//
molecule: C=CCCCCCCCCC=O
measurementTarget: human TRPA1 (Homo sapiens, UniProt O75762, K186N/R3C/R58T)
classAssignment: class 0
